Overview of recorded z-score for various compounds
- system-tested: Metabotropic glutamate receptor 8 (Rattus norvegicus) (UniProt P70579)
- Sequence (P70579 whole entry, looked up): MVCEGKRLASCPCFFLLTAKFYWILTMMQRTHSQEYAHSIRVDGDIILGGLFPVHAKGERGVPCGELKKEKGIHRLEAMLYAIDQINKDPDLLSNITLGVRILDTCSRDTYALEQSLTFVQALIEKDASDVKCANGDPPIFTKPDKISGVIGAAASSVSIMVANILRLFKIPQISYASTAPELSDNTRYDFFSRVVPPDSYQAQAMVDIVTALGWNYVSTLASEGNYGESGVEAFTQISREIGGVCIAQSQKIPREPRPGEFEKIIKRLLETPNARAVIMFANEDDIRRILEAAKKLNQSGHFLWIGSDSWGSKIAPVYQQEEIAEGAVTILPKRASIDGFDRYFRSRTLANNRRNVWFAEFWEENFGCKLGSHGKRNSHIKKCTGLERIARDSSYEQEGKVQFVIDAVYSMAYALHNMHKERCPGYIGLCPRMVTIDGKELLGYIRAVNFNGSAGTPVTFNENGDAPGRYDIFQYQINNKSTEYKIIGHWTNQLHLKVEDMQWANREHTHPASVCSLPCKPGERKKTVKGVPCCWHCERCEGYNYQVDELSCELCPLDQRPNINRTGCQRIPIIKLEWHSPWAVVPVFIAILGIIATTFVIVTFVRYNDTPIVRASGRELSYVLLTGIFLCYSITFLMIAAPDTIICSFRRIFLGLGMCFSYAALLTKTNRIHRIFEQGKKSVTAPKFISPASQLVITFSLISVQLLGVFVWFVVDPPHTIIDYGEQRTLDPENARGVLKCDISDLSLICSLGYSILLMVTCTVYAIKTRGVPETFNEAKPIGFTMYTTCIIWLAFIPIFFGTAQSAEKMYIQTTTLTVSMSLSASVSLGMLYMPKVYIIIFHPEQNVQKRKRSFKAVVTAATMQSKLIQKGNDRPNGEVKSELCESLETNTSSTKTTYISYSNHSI
- experiment-notes: mGluR8 Gi/Go-coupled signaling modulation – cell-based, rat, thallium flux, HTS, primary screen (AID 488969)
- condition-label: HEK293 rat mGluR8, GIRK thallium flux, FluoZin2; at 10 µM; stronger effect = higher value
The full ranking holds about 110,000 compounds; the median of “z-score” is about -0.1, and the highest 2% start at about 2. The sample as a whole holds a higher share of the highest values than the screen did.
The reply should be a number, written without any unit.

Some compounds with known z-score results, for comparison:
{"compound": "CCS(=O)(=O)N1CCCC(C(=O)N2CCC3(CC2)OCCO3)C1 (centres undefined)", "numeric-readout": 0.0065}
{"compound": "N=c1c[n+](CC23CC4CC(CC(C4)C2)C3)[n-]o1", "numeric-readout": 2.09}
{"compound": "CN1CCN(Cc2ccc(Br)s2)CC1", "numeric-readout": 0.759}

Task item: Which z-score reading was recorded for the compound `c1ccc(CNCCc2ccc3c(c2)OCO3)nc1` ?
Reply: -0.496

Task item: Which z-score reading was recorded for the compound `Cn1cccc1/C=C1\C(=O)NC(=O)N(CCC2=CCCCC2)C1=O` ?
Reply: -0.117

Task item: Which z-score reading was recorded for the compound `O=C(Cc1ccccc1)N1CCN(C/C=C/c2ccccc2)CC1` ?
Reply: 3.68

Task item: Which z-score reading was recorded for the compound CC(C)N(CC(O)c1cccc([N+](=O)[O-])c1)C(C)C (centres undefined) ?
Reply: -0.309

Task item: Which z-score reading was recorded for the compound `c1ccc2c(CCNCc3ccc4c(c3)OCO4)c[nH]c2c1` ?
Reply: 2.19

Task item: Which z-score reading was recorded for the compound CC(C(N)=O)N1CC(c2ccc(Cl)cc2)CC1=O (centres undefined) ?
Reply: -0.161

Task item: Which z-score reading was recorded for the compound CN(C)CC1CSCCC1(O)c1ccccc1 (centres undefined) ?
Reply: 0.409

Task item: Which z-score reading was recorded for the compound `CN(C)C(=O)Oc1ccc(OC(=O)N(C)C)cc1` ?
Reply: 0.415

---

Overview of recorded z-score for various compounds
- system-tested: Metabotropic glutamate receptor 8 (Rattus norvegicus)
- experiment-notes: mGluR8 Gi/Go-coupled signaling modulation – cell-based, rat, thallium flux, HTS, primary screen (AID 488969)
- condition-label: HEK293 rat mGluR8, GIRK thallium flux, FluoZin2; at 10 µM; stronger effect = higher value
In all, about 110,000 compounds were measured (“z-score”: median about -0.1, highest 2% from about 2 on). This is one part of a sample in which the highest values are shown more often than they occur. The source made the active and inactive calls.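 How the source made its calls: active means z-score in the third read window above 3 or below -3; inactive means the rest.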

Some compounds with known z-score results, for comparison:
{"compound": "CN1CCC(N(C)c2nc(-c3ccccc3)nc3ccccc23)CC1", "z-score": 0.199}
{"compound": "CN1CCCC1C(O)(c1ccccc1)c1ccccc1 (stereo not drawn)", "z-score": -0.0177}
{"compound": "CC(=NCCC(c1ccccc1)c1ccccc1)c1c(O)n(C)c(=O)n(C)c1=O", "z-score": -0.488}
{"compound": "CC/C(=N\\Nc1cccc2ccccc12)c1c(O)[nH]c(=O)[nH]c1=O", "z-score": -0.114}
{"compound": "CCCCn1c(O)c(C(C)=NCCCn2ccnc2)c(=O)[nH]c1=O", "z-score": 2.03}
{"compound": "Cc1cccc(N2C(=O)NC(=O)/C(=C\\c3cccn3-c3ccc(Cl)cc3)C2=O)c1", "z-score": -0.0172}
{"compound": "CCCCCCCSc1cc(OC)c(CCNC)cc1OC", "z-score": 2.15}
{"compound": "OC(Cc1ccccc1)(c1ccccc1)C1CN2CCC1CC2 (stereo not drawn)", "z-score": 2}
{"compound": "Cc1ccc(-c2nc(N(C)C3CCN(C)CC3)c3ccccc3n2)cc1", "z-score": 2.91}
{"compound": "CC(C)N1C(=O)/C(=C/C=C/c2ccco2)C(=O)N(Cc2ccco2)C1=O", "z-score": "6.08 (active)"}

Task item: Which z-score reading was recorded for the compound `CCCCCSc1cc(OC)c(CCN)cc1OC` ?
Reply: 1.67

Task item: Which z-score reading was recorded for the compound `CCCCN1C(=O)/C(=C/C=C/c2ccco2)C(=O)NC1=S` ?
Reply: 0.136

Task item: Which z-score reading was recorded for the compound `O=C(c1ccccc1F)c1cn(CC(=O)N2CCCCC2)c2ccccc12` ?
Reply: -0.152

Task item: Which z-score reading was recorded for the compound `CCOc1ccc(N=Cc2c(O)n(C(C)(C)C)c(=O)[nH]c2=O)cc1` ?
Reply: -0.283

Task item: Which z-score reading was recorded for the compound `C/C(=N\Nc1ccccc1)c1c(O)n(C)c(=O)n(C)c1=O` ?
Reply: 3.74 (active)

Task item: Which z-score reading was recorded for the compound Cc1ccccc1C(O)(Cc1ccccc1)C1CN2CCC1CC2 (stereo not drawn) ?
Reply: -0.323

Task item: Which z-score reading was recorded for the compound `CCOC(=O)C1=C(NC(=S)NC(=O)c2ccccc2)c2ccccc2CC12CCCC2` ?
Reply: 2.46

Task item: Which z-score reading was recorded for the compound O=C(C1CCCN(c2nnc(-n3cccc3)s2)C1)N1CCC2(CC1)OCCO2 (stereo not drawn) ?
Reply: 0.546

Task item: Which z-score reading was recorded for the compound CN1C(=O)NC(=O)C2(Cc3ccccc3N3CCOCC32)C1=O (stereo not drawn) ?
Reply: -0.307

Task item: Which z-score reading was recorded for the compound `Cc1ccc(N(C)C(=O)Oc2ccc(C(=O)c3ccc(Cl)cc3)cc2)cc1` ?
Reply: 0.23

Task item: Which z-score reading was recorded for the compound CC(NC1CCCCC1)C(O)C12CC3CC(CC(C3)C1)C2 (stereo not drawn) ?
Reply: 2.39

Task item: Which z-score reading was recorded for the compound `CN(C)CCN=Cc1c(O)n(Cc2ccco2)c(=O)[nH]c1=O` ?
Reply: 0.184

Task item: Which z-score reading was recorded for the compound Cc1cc(C)c(-n2c(O)c(/C=N/N3CCCCC3c3cccnc3)c(=O)[nH]c2=O)c(C)c1 (stereo not drawn) ?
Reply: -0.531

---

Overview of recorded z-score for various molecules
- system-tested: Metabotropic glutamate receptor 8 (Rattus norvegicus) (UniProt P70579)
- experiment-notes: mGluR8 Gi/Go-coupled signaling modulation – cell-based, rat, thallium flux, HTS, primary screen (AID 488969)
- condition-label: HEK293 rat mGluR8, GIRK thallium flux, FluoZin2; at 10 µM; stronger effect = higher value
Whole data set: some 110,000 compounds, median “z-score” near -0.1, cut for the highest 2% near 2. This excerpt belongs to a sample that is enriched for the highest values.
The reply should be a number, written without any unit.

Some molecules with known z-score results, for comparison:
{"molecule": "CCN(CC)Cc1c[nH]c2ccccc12", "z-score": -0.122}
{"molecule": "Cc1ccc(OP(=O)(NCc2ccccc2)Oc2ccc(C)cc2)cc1", "z-score": -0.00664}
{"molecule": "O=C(c1ccc2c(c1)ncn2C1CCCCCC1)N1CCC2(CC1)OCCO2", "z-score": -0.0497}
{"molecule": "Clc1cccc(N2CCNCC2)c1Cl", "z-score": 0.654}
{"molecule": "COc1cc2[nH]c(=O)n(-c3cccc(Cl)c3)c(=O)c2cc1OC", "z-score": -0.0317}

Task item: Which z-score reading was recorded for the molecule CC12CN3CC(C)(CN(C1)C3c1ccco1)C2=O (stereo not given) ?
Reply: 0.289

---

- system-tested: Metabotropic glutamate receptor 8 (Rattus norvegicus) (UniProt P70579)
- experiment-notes: mGluR8 Gi/Go-coupled signaling modulation – cell-based, rat, thallium flux, HTS, primary screen (AID 488969)
- condition-label: HEK293 rat mGluR8, GIRK (G protein-gated inwardly rectifying potassium channel) thallium flux, FluoZin2; at 10 µM; stronger effect = higher value
The full ranking holds about 110,000 compounds; the median of “z-score” is about -0.1, and the highest 2% start at about 2. The entries come from a sample that favours the highest values as a whole. Activity calls are given as the source filed them.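 Rule for the calls: active = z-score in the third read window above 3 or below -3; inactive = the rest.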
Overview of recorded z-score for various compounds

Some compounds with known z-score results, for comparison:
{"compound": "CCOc1ccc(-n2c(O)c(C=NCCCn3ccnc3)c(=O)[nH]c2=O)cc1", "result": 0.0171}
{"compound": "COC(=O)C(O)(c1ccc(N=Cc2ccccc2O)c(C)c1)C(F)(F)F (configuration not stated)", "result": 0.286}

Task item: Form field: z-score recorded for `CNC(=O)OCCc1nccn1C` with Metabotropic glutamate receptor 8 (Rattus norvegicus) (UniProt P70579) (enter value)
Reply: 3.02 (active)

Task item: Form field: z-score recorded for `Cc1cc(C(=O)N2CCC3(CC2)OCCO3)cs1` with Metabotropic glutamate receptor 8 (Rattus norvegicus) (UniProt P70579) (enter value)
Reply: 0.652

Task item: Form field: z-score recorded for COc1cc(C2NCc3ccccc3-n3cccc32)ccc1O (configuration not stated) with Metabotropic glutamate receptor 8 (Rattus norvegicus) (UniProt P70579) (enter value)
Reply: 1.55

Task item: Form field: z-score recorded for O=[N+]([O-])c1ccc(C2[C@H]3C(c4ccccc4)=NC4(CCCCC4)N23)cc1 (some centres not stated) with Metabotropic glutamate receptor 8 (Rattus norvegicus) (UniProt P70579) (enter value)
Reply: -0.0546

Task item: Form field: z-score recorded for O=C(COc1ccc(Cl)cc1)NC1CN2CCC1CC2 (configuration not stated) with Metabotropic glutamate receptor 8 (Rattus norvegicus) (UniProt P70579) (enter value)
Reply: -0.215

Task item: Form field: z-score recorded for `CNC(=O)OCCc1n(C)cc[n+]1C` with Metabotropic glutamate receptor 8 (Rattus norvegicus) (UniProt P70579) (enter value)
Reply: -0.193

Task item: Form field: z-score recorded for `OC(c1ccccc1)(c1ccccc1)c1ccncc1` with Metabotropic glutamate receptor 8 (Rattus norvegicus) (UniProt P70579) (enter value)
Reply: -0.0666

Task item: Form field: z-score recorded for `O=C(c1cc(S(=O)(=O)N2CCCCC2)ccc1F)N1CCC2(CC1)OCCO2` with Metabotropic glutamate receptor 8 (Rattus norvegicus) (UniProt P70579) (enter value)
Reply: -0.0595

Task item: Form field: z-score recorded for `CN(C(=O)Oc1ccc(Cl)c2cccnc12)c1ccccc1` with Metabotropic glutamate receptor 8 (Rattus norvegicus) (UniProt P70579) (enter value)
Reply: -0.251

Task item: Form field: z-score recorded for `O=C(O)C1(c2ccc(Cl)cc2)CCC1` with Metabotropic glutamate receptor 8 (Rattus norvegicus) (UniProt P70579) (enter value)
Reply: -0.279
